Entry source: patent US12421225B2

The reader will find reported pIC50 values listed item by item below.
Target: human Nav1.7 (Homo sapiens (Human), UniProt Q15858)
Sequence (Q15858 whole entry): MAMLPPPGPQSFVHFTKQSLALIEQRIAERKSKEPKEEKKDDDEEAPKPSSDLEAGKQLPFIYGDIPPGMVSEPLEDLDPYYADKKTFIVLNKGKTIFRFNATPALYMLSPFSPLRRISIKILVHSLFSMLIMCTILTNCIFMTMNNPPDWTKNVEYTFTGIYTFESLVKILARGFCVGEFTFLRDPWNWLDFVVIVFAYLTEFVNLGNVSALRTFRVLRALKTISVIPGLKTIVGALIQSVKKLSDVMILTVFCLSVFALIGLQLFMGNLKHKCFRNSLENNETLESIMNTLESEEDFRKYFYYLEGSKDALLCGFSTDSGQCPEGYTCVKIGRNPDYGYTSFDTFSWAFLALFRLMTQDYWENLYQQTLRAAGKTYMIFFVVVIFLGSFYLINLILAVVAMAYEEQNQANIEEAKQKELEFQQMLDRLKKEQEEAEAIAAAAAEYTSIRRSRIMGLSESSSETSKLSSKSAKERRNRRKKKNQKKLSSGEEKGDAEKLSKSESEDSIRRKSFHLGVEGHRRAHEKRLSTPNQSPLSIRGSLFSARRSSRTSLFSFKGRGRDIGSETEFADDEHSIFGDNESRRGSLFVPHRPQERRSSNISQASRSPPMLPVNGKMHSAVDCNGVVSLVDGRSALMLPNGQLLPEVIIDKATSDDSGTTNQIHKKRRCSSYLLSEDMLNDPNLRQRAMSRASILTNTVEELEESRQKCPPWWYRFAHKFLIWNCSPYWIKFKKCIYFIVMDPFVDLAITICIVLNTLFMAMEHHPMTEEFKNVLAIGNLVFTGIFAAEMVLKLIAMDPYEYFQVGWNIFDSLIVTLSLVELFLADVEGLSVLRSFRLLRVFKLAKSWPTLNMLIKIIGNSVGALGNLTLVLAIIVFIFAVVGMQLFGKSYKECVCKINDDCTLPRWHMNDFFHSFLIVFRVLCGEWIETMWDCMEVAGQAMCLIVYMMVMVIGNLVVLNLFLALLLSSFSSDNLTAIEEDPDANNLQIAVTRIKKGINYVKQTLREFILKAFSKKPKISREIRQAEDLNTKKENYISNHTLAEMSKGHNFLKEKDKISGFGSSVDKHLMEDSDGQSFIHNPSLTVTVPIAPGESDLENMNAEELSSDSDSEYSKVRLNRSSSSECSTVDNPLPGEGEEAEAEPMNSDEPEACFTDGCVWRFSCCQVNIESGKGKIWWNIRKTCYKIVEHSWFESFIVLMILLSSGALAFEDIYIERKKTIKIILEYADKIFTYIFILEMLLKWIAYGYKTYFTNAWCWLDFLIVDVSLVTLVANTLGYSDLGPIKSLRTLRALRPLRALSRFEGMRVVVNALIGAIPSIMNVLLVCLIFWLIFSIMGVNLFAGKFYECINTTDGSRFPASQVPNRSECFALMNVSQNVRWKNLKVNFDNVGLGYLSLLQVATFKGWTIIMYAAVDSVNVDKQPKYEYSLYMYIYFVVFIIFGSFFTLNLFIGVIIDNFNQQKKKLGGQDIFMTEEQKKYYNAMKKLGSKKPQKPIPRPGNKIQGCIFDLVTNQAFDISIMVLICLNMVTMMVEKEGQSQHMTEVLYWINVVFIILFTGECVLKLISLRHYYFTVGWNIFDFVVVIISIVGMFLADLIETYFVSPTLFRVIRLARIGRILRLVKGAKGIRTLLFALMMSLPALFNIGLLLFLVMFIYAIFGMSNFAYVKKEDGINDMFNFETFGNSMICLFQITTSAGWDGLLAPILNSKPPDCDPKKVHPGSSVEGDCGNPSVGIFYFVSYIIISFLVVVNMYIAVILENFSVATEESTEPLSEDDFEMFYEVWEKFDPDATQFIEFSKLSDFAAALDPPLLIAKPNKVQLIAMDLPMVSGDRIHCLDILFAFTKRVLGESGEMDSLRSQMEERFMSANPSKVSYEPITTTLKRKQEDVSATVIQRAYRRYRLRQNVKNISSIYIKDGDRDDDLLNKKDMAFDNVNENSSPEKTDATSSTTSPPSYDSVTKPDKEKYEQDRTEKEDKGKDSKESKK
Sequence (Q07699 19-218 partner): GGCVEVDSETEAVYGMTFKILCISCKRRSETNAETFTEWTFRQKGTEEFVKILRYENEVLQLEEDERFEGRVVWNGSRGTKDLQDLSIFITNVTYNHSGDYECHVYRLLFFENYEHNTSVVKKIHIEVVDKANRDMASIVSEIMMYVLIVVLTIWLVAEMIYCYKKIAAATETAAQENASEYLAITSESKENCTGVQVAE
Test: Human Nav1.7 inhibitory activity evaluation (automated patch clamp QPatch16X, HEK293A cells stably expressing human Nav1.7 and human Navβ1)
Assay type: cell-based
Details: human Nav1.7, automated patch clamp
pIC50: −log10 of the molar value.

// worked examples, pIC50 included
MOLECULE | pIC50
O=C(N[C@H]1COc2ccc(CC(F)F)cc2C1)c1cc2n(n1)CCN(CCC1CC1)C2 | > 6.00
O=C(N[C@H]1COc2ccccc2C1)c1cn2c(n1)CCC(c1cccc(C(F)(F)F)n1)C2 (some centres unmarked) | > 6.00
O=C(N[C@H]1COc2ccccc2C1)c1cc2n(n1)CCN(C(=O)Cc1ccccc1)C2 | > 5.00
Cc1cccc(-c2c(C(=O)N[C@H]3COc4ccc(C(F)(F)F)cc4C3O)nn3c2COCC3)n1 (some centres unmarked) | > 6.00
O=C(N[C@H]1COc2ccc(C(F)(F)F)cc2C1F)c1cc2n(n1)CCN(C1CCOCC1)C2 (some centres unmarked) | > 5.00
N#Cc1ccc2c(c1)C[C@@H](NC(=O)c1cc3n(n1)CC(CCSCC(F)(F)F)O3)CO2 (single isomer, unassigned) [244 (isomer B)] | > 6.00

# input Query (molecule): O=C(NC1COc2ccc(F)c(F)c2C1)c1cc2n(n1)CC(CCOCC1CC1)O2 (centres unmarked) ; field requested: pIC50
# output > 6.00

# input What does the record list as pIC50 for O=C(N[C@H]1COc2ccc(C(F)(F)F)cc2C1)c1cc2n(n1)CCN(CCOCC(F)(F)F)C2 ?
# output > 6.00

# input What does the record list as pIC50 for O=C(N[C@H]1COc2ccc(CCOC(F)F)cc2C1)c1cc2n(n1)CCC(C(F)F)O2 (single isomer, unassigned) [165 (isomer B)] ?
# output > 5.00

# input Look up pIC50: Cn1ccc(-c2c(C(=O)N[C@H]3COc4ccc(C(F)(F)F)cc4C3)nn3c2COCC3)n1
# output > 6.00

# input Recorded pIC50 for N#Cc1ccc2c(c1)C(F)[C@@H](NC(=O)c1cc3n(n1)CCC(COCC1CC1)O3)CO2 (single isomer, unassigned) [617 (isomer C)] , please?
# output > 5.00

* * *

IC50 values by entry
Molecular target: human Nav1.7 (Homo sapiens (Human), UniProt Q15858)
Test: Human Nav1.7 inhibitory activity evaluation (automated patch clamp QPatch16X, HEK293A cells stably expressing human Nav1.7 and human Navβ1)
Format: cell-based
Conditions: human Nav1.7, automated patch clamp

# count of solved cases: 2
MOLECULE | IC50
N#Cc1ccc2c(c1)C[C@@H](NC(=O)c1cc3n(n1)CCN(Cc1ccccc1C(F)(F)F)C3)CO2 [Example 499] | < 1 µM
O=C(N[C@H]1COc2ccc(C(F)(F)F)cc2C1)c1nn2c(c1-c1cccc(Cl)n1)COCC2 [Example 485] | < 1 µM

# input Entry under review: O=C(N[C@H]1COc2ccc(C(F)F)cc2C1)c1cc2n(n1)CCN(Cc1ccccn1)C2 [Example 492] . Reported IC50?
# output < 10 µM

# input What IC50 value was documented for this molecule, O=C(N[C@H]1COc2ccc(COCC(F)(F)F)cc2C1)c1cc2n(n1)CCC(COC(F)F)O2 (single isomer, unassigned) [140 (isomer A)] ?
# output < 1 µM

* * *

Molecular target: human Nav1.5 (Homo sapiens (Human))
Sequence (Q14524 whole entry): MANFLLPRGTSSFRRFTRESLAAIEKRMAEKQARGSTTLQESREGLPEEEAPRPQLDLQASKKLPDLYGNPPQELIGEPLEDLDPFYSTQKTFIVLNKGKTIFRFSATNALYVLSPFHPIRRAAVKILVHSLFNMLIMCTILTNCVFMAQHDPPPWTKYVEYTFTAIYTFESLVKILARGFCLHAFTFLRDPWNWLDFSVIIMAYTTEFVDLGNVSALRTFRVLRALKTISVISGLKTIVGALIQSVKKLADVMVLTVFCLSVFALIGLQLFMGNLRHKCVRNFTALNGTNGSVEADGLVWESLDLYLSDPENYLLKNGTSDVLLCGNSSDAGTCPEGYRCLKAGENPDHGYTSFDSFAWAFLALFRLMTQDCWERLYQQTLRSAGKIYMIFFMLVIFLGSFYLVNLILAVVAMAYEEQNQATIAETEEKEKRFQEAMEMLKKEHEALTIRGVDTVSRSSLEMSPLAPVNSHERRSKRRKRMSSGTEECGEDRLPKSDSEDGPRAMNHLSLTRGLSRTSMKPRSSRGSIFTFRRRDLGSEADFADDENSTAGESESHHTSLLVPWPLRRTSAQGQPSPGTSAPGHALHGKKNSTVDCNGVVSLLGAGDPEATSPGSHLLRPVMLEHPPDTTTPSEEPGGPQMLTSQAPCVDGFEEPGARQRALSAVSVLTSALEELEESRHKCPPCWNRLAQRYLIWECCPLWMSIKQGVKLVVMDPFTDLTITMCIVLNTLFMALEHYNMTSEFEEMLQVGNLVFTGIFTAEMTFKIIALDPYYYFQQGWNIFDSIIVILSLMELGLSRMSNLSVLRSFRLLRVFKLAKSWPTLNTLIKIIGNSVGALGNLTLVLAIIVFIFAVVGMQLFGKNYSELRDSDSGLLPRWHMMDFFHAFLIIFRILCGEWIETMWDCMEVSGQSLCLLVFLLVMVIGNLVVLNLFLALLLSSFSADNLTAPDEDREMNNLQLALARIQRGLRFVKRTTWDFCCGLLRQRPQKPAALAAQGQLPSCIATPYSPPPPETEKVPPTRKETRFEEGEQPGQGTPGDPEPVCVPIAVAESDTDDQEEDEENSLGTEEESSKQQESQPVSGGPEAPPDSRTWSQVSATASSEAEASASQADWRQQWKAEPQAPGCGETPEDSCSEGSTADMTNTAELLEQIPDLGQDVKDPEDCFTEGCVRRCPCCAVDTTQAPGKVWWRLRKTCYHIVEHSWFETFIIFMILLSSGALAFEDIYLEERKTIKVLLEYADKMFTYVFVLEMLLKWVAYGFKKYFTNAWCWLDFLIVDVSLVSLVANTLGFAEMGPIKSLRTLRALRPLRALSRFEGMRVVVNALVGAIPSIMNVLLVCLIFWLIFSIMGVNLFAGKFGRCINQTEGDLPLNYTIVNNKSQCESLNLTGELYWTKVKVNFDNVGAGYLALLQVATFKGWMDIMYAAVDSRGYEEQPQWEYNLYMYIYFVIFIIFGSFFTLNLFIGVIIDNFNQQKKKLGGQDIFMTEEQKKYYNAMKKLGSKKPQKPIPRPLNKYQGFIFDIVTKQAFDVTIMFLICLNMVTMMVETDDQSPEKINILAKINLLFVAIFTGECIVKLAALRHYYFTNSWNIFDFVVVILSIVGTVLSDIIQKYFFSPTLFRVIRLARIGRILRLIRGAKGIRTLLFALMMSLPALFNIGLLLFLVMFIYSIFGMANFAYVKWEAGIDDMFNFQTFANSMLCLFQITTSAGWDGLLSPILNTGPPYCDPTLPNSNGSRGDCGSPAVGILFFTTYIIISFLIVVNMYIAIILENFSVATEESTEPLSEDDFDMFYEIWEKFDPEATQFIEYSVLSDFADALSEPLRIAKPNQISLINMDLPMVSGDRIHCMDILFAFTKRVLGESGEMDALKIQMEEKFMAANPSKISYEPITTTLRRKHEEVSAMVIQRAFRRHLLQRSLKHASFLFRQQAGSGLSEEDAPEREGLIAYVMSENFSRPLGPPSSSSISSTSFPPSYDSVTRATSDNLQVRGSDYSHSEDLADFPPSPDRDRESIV
Assay: Human Nav1.5 inhibitory activity evaluation (automated patch clamp QPatch16X, HEK293 cells stably expressing human Nav1.5)
Assay type: cell-based
Settings: human Nav1.5, automated patch clamp
pIC50: −log10 of the molar value.
MEASURED_PROPERTY: pIC50

COMPOUND | MEASURED_PROPERTY | OBSERVED_RESULT
O=C(N[C@H]1COc2ccccc2C1)c1cc2n(n1)CC(c1ccccc1)O2 (stereo partly drawn) | pIC50 | ≤ 5.52

# next compound below
# input # query: pIC50 of entry N#Cc1ccc2c(c1)C[C@@H](NC(=O)c1cc3n(n1)CC(CSCC(F)(F)F)O3)CO2 (single isomer, unassigned) [200 (isomer A)]
# output ≤ 5.52

* * *

Item-by-item account of pIC50
Target: human Nav1.7 (Homo sapiens (Human), UniProt Q15858)
Assay: Human Nav1.7 inhibitory activity evaluation (automated patch clamp QPatch16X, HEK293A cells stably expressing human Nav1.7 and human Navβ1)
Type: cell-based
Settings: human Nav1.7, automated patch clamp
pIC50: −log10 of the molar value.

# input Entry O=C(N[C@H]1COc2ccc(C(F)(F)F)cc2C1)c1cc2n(n1)CCC(C1CCOC1)O2 (stereo partly shown) : reported pIC50 = ?
# output > 5.00

# input Give the measured pIC50 of CC1(C)CCn2nc(C(=O)N[C@H]3COc4ccc(-c5ccc(C#N)nc5)cc4C3)cc2O1 .
# output > 5.00

# input Look up pIC50 for this compound: O=C(N[C@H]1COc2ccc(COCC(F)(F)F)cc2C1)c1cc2n(n1)CC(COCC1CC1)O2 (stereo partly shown) [Example 185]
# output > 6.00

# input What does the record list as pIC50 for N#Cc1ccc2c(c1)C[C@@H](NC(=O)c1cc3n(n1)CCC(COC1CC(F)C1)O3)CO2 (stereo partly shown) ?
# output > 5.00

* * *

Target: human Nav1.7 (Homo sapiens (Human), UniProt Q15858)
Assay: Human Nav1.7 inhibitory activity evaluation (automated patch clamp QPatch16X, HEK293A cells stably expressing human Nav1.7 and human Navβ1)
Assay type: cell-based
Details: HEK293A cells stably expressing human Nav1.7 and human Navβ1, automated patch clamp QPatch16X
MEASURED_PROPERTY: IC50

Example entries and their recorded answers appear below.
COMPOUND | TARGET_SYSTEM | IC50
N#Cc1ccc2c(c1)C[C@@H](NC(=O)c1cc3n(n1)CCC(COCC(F)(F)F)O3)CO2 (mixture of isomers) [Example 114] | human Nav1.7 (Homo sapiens (Human), UniProt Q15858) | < 10 µM
CCOCC1CCn2nc(C(=O)N[C@H]3COc4ccc(-c5ccc(C#N)nc5)cc4C3)cc2O1 (stereo partly drawn) [Example 125] | human Nav1.7 (Homo sapiens (Human), UniProt Q15858) | < 10 µM
O=C(N[C@H]1COc2ccc(Cl)cc2C1)c1cn2c(n1)CCC(OCC(F)(F)F)C2 (single isomer, unassigned) [39 (isomer A)] | human Nav1.7 (Homo sapiens (Human), UniProt Q15858) | < 10 µM
O=C(N[C@H]1COc2ccc(Cl)cc2C1)c1cn2c(n1)CCC(OCC(F)(F)F)C2 (single isomer, unassigned) [39 (isomer B)] | human Nav1.7 (Homo sapiens (Human), UniProt Q15858) | < 10 µM
CN1Cc2nc(C(=O)N[C@H]3COc4ccccc4C3)cn2CC1c1ccc(F)c(F)c1 (stereo partly drawn) [Example 45] | human Nav1.7 (Homo sapiens (Human), UniProt Q15858) | < 10 µM

# input Query: IC50; subject: O=C(N[C@H]1COc2ccc(Cl)cc2C1)c1cc2n(n1)CCC(COc1ccccn1)O2 (stereo partly drawn) [Example 117]
# output < 1 µM

* * *

# Lookup of reported IC50 keyed by entry
Biological target: human Nav1.7 (Homo sapiens (Human), UniProt Q15858)
Experiment: Human Nav1.7 inhibitory activity evaluation (automated patch clamp QPatch16X, HEK293A cells stably expressing human Nav1.7 and human Navβ1)
Type: cell-based
Settings: human Nav1.7, automated patch clamp

Recorded IC50, per entry:
MOLECULE | MEASURED_PROPERTY | OBSERVED_RESULT
O=C(N[C@H]1COc2ccc(C(F)(F)F)cc2C1F)c1cc2n(n1)CCN(CCOCC1CC1)C2 (stereo partly drawn) | IC50 | < 1 µM
O=C(N[C@H]1COc2ccc(C3CC3)cc2C1)c1cc2n(n1)CC(COCC1CC1)O2 (stereo partly drawn) | IC50 | < 1 µM
O=C(N[C@H]1COc2ccc(CC(F)F)cc2C1)c1cc2n(n1)CC(CCOC(F)(F)F)O2 (single isomer, unassigned) [211 (isomer A)] | IC50 | < 1 µM
O=C(N[C@H]1COc2ccc(COCC(F)(F)F)cc2C1)c1nn2c(c1-c1ccccn1)NCCC2 | IC50 | < 10 µM
O=C(N[C@H]1COc2ccc(Cl)cc2C1)c1cc2n(n1)CCN(CC(C(F)(F)F)C(F)(F)F)C2 | IC50 | < 1 µM
Cc1cccc(-c2c(C(=O)N[C@H]3COc4ccc(C(F)(F)F)cc4C3)nn3c2NCCC3)n1 | IC50 | < 10 µM

# input I have this molecule here, O=C(N[C@H]1COc2ccc(Cl)cc2C1)c1cc2n(n1)CCC(c1ccnc(C(F)(F)F)c1)O2 (stereo partly drawn) , and I need its recorded IC50.
# output < 10 µM

# input Fill blank: measured IC50 of the molecule O=C(N[C@H]1COc2ccc(C(F)(F)F)cc2C1)c1cc2n(n1)CCC(C(F)F)O2 (single isomer, unassigned) [161 (isomer B)] is ____.
# output < 10 µM

# input Entry O=C(N[C@H]1COc2ccc(C(F)(F)F)cc2C1OCC(F)(F)F)c1cc2n(n1)CCC(C(F)F)O2 (stereo partly drawn) has what IC50?
# output < 10 µM

# input Name the recorded IC50 for COc1ccc(-c2ccc3c(c2)C[C@@H](NC(=O)c2cc4n(n2)CCC(C(F)(F)F)O4)CO3)cn1 (stereo partly drawn) .
# output < 10 µM

# input Recorded IC50 of CCNc1cccc(C2CCc3nc(C(=O)N4CCC(c5ccccc5)C4)cn3C2)n1 (stereo not drawn) , please.
# output < 10 µM

# input Looking for the measured IC50 of O=C(N[C@H]1COc2cc(C(F)(F)F)nn2C1)c1cc2n(n1)CCC(c1ccccc1F)O2 (stereo partly drawn) , can you help?
# output < 10 µM

# input Dear colleague, I am looking for the recorded IC50 of the following molecule: O=C(NC1COc2ccc(F)cc2C1)c1cc2n(n1)CCC(c1ccccc1)O2 (stereo not drawn)
# output < 1 µM

# input Field request: IC50 | item: O=C(N[C@H]1COc2ccc(-c3cncnc3)cc2C1)c1cc2n(n1)CCC(c1ccccc1F)O2 (stereo partly drawn)
# output < 1 µM

# input For the molecule shown here, O=C(N[C@H]1COc2ccc(C(F)(F)F)cc2C1)c1cc2n(n1)CC(CCNCC(F)(F)F)O2 (single isomer, unassigned) [230 (isomer A)] , give the reported IC50.
# output < 1 µM
